tested on: SW-837 rectum adenocarcinoma; assay: MTT in vitro cytotoxicity, SW-837; type: cell-based; details: Homo sapiens, SW837, SW-837 cells, concentrations until 100 µM, incubation until 72 h

Molecular String: CN(CCCNC(=O)c1c2cc(F)ccc2nc2c1[nH]c1ccccc12)CCCNC(=O)c1c2cc(F)ccc2nc2c1[nH]c1ccccc12
IC50, µM: 17.9

Molecular String: CN(CCCNC(=O)c1c2cc(Cl)ccc2nc2c1[nH]c1ccccc12)CCCNC(=O)c1c2cc(Cl)ccc2nc2c1[nH]c1ccccc12
IC50, µM: 6.2

----------
tested on: GLC-4; experiment: MTT in vitro cytotoxicity, GLC-4; type: cell-based; conditions: Homo sapiens, GLC4, GLC-4 cells, concentrations until 100 µM, incubation until 72 h

Compound: O=C(O)c1c2cc(Cl)ccc2nc2c1[nH]c1ccccc12 [IIa]
Result Unit: µM
IC50: 15.7
--
Compound: CN(CCCNC(=O)c1c2cc(Cl)ccc2nc2c1[nH]c1ccccc12)CCCNC(=O)c1c2cc(Cl)ccc2nc2c1[nH]c1ccccc12 [IIIa]
Result Unit: µM
IC50: 0.16
--
Compound: O=C(O)c1c2cc(F)ccc2nc2c1[nH]c1ccccc12 [IIb]
Result Unit: µM
IC50: 12
--
Compound: CN(CCCNC(=O)c1c2ccccc2nc2c1[nH]c1ccccc12)CCCNC(=O)c1c2ccccc2nc2c1[nH]c1ccccc12 [Ia, reference compound]
Result Unit: µM
IC50: 1.45

Cited source for all entries: patent EP1885364B1
